# SYSTEM: BCRP (ABCG2) (Homo sapiens, UniProt Q9UNQ0)
# Sequence (Q9UNQ0 whole entry): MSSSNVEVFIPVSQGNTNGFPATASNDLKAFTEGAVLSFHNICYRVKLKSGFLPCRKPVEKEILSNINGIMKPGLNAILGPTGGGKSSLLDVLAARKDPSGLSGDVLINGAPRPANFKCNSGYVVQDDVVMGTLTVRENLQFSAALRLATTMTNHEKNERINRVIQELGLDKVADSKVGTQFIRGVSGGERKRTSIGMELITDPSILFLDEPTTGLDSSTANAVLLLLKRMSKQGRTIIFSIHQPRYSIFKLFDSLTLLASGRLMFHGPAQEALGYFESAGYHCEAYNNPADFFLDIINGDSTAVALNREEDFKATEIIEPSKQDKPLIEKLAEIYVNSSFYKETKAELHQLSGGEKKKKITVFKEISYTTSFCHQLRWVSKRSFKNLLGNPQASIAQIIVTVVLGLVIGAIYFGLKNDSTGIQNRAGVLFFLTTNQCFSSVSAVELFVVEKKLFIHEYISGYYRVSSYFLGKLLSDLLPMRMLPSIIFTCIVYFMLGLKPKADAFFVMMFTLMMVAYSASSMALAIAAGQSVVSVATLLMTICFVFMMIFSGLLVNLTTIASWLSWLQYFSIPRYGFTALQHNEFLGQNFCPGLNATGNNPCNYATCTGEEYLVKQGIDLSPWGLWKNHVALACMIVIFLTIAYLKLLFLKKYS
# ASSAY: Substrate activity at BCRP (unknown origin) expressed in MDCK2 cells assessed as efflux ratio of permeability across basolateral to apical over apical to basolateral side
# Assay type: ADME, cell-based
MEASURE_NAME: efflux ratio

Entry O=C(NC1CC1)C(=O)C(Cc1ccccc1)NC(=O)[C@H]1CCC(=O)N1Cc1ccccc1 (stereo partly specified) has what efflux ratio?
0.9

* * *

# ASSAY: Intrinsic clearance in rat liver microsomes
# CONDITION_PARAMETERS: read-out: CLH
I'd be grateful if you could share measured microsomal CLint for these entries.

Entry O=C1CC[C@H](C(=O)NC(Cc2ccccc2)C(=O)C(=O)NC2CC2)N1 (some centres not stated) has what microsomal CLint?
< 23 µL/min/mg

Also, O=C(NC1CC1)C(=O)C(Cc1ccccc1)NC(=O)[C@H]1CCC(=O)N1C1Cc2ccccc2C1 (some centres not stated) please.
58 µL/min/mg

Also, O=C(NC1CC1)C(=O)C(Cc1ccccc1)NC(=O)[C@H]1CCC(=O)N1Cc1ccccc1Cl (some centres not stated) please.
> 100 µL/min/mg

Also, Cn1cc(CN2C(=O)CC[C@@H]2C(=O)NC(Cc2ccccc2)C(=O)C(=O)NC2CN2)cn1 (some centres not stated) please.
39 µL/min/mg

Also, O=C(NC1CC1)C(=O)C(Cc1ccccc1)NC(=O)[C@H]1CCC(=O)N1Cc1ccccc1OC(F)(F)F (some centres not stated) please.
> 100 µL/min/mg

Also, O=C(NC1CC1)C(=O)C(Cc1ccccc1)NC(=O)[C@H]1CCC(=O)N1Cc1ccccc1 (some centres not stated) please.
< 23 µL/min/mg

Also, O=C(NC1CC1)C(=O)C(Cc1ccccc1)NC(=O)[C@H]1CCC(=O)N1Cc1ccccc1C(F)(F)F (some centres not stated) please.
> 100 µL/min/mg
